Biological target: hα2C receptor (Homo sapiens)
Construct: expressed in transfected cells
Sequence (P18825 whole entry): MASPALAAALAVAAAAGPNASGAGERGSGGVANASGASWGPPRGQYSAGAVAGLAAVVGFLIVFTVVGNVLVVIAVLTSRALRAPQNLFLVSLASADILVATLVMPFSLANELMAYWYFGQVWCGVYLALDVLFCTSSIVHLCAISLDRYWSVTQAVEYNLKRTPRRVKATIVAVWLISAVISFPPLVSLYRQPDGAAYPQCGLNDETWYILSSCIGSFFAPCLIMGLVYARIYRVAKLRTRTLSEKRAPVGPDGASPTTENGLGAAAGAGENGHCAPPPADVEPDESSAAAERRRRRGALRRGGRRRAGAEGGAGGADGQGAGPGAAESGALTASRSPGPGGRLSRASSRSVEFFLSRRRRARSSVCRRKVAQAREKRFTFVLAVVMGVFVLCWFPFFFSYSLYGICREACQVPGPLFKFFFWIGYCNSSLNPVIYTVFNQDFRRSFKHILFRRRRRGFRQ
Assay: Radioligand binding experiment for hα2C receptor ([3H]-raulwolscine)
Details: membranes of CHO cells expressing human α2C receptor; [3H]raulwolscine 1 nM; read-out: hα2C pIC50 (converted)
Experimental Endpoint: IC50 (nM)

In [3]: df
Out[3]:
                                    compound                assayed_system  experimental_endpoint  result_unit  readout_number
 0  COc1cc2c(cc1OC)C1=NOC(CN3CCN(C/C=C(\C)c4cccc(Cl)c4)CC3)C1CO2 (single isomer, unassigned)  hα2C receptor (Homo sapiens)                   IC50           nM            3.31
 1  COc1cc2c(cc1OC)C1=NOC(CN3CCN(CCC(O)c4ccccc4)CC3)C1CO2 (stereo not drawn)  hα2C receptor (Homo sapiens)                   IC50           nM            64.6
 2  COc1cc2c(cc1OC)C1=NOC(CN3CCN(CC(C)Nc4ccccc4)CC3)C1CO2 (stereo not drawn)  hα2C receptor (Homo sapiens)                   IC50           nM             245
 3  COc1cc2c(cc1OC)C1=NOC(CN3CCN(Cc4ccc5ccccc5n4)CC3)C1CO2 (stereo not drawn)  hα2C receptor (Homo sapiens)                   IC50           nM            43.7
 4  COc1cc2c(cc1OC)C1=NOC(CN3CCN(CC=Cc4ccc(F)cc4)CC3)C1CO2 (stereo not drawn)  hα2C receptor (Homo sapiens)                   IC50           nM             138
 5  CC(=O)Oc1ccc2c(c1)OCC1C2=NOC1CN1CCN(Cc2ccc3ccccc3c2)CC1 (stereo not drawn)  hα2C receptor (Homo sapiens)                   IC50           nM            30.9
 6  COCCOCOc1cc2c(cc1OC)C1=NOC(CN3CCN(C/C(C)=C/c4ccccc4)CC3)C1CO2 (single isomer, unassigned)  hα2C receptor (Homo sapiens)                   IC50           nM           0.162
 7  c1ccc2cc(CN3CCN(CC4ON=C5c6ccc(OC7CCOC7)cc6OCC54)CC3)ccc2c1 (stereo not drawn)  hα2C receptor (Homo sapiens)                   IC50           nM            42.7
 8  COc1cc2c(cc1OC)C1=NOC(CN3CCN(CC=Cc4ccc5c(c4)CCO5)CC3)C1CO2 (stereo not drawn)  hα2C receptor (Homo sapiens)                   IC50           nM            34.7
 9  COc1cc2c(cc1OC)C1=NOC(CN3CCN(CC=Cc4ccc5ccccc5c4)CC3)C1CO2 (stereo not drawn)  hα2C receptor (Homo sapiens)                   IC50           nM             324
10  COc1cc2c(cc1OC)C1=NOC(CN3CCN(CC=Cc4cccc(C)c4)CC3)C1CO2 (stereo not drawn)  hα2C receptor (Homo sapiens)                   IC50           nM            34.7
11  COc1ccccc1C=C(C)CN1CCN(CC2ON=C3c4cc(OC)c(OC)cc4OCC32)CC1 (stereo not drawn)  hα2C receptor (Homo sapiens)                   IC50           nM            4.57
12  COc1cc2c(cc1OC)C1=NOC(CN3CCN(Cc4ccccc4)CC3)C1CO2 (stereo not drawn)  hα2C receptor (Homo sapiens)                   IC50           nM            1000
13  COc1cc2c(cc1OC(C)=O)C1=NOC(CN3CCN(C/C(C)=C/c4ccccc4)CC3)C1CO2 (single isomer, unassigned)  hα2C receptor (Homo sapiens)                   IC50           nM            4.68
14  COc1cc2c(cc1OC)C1=NOC(CN3CCN(Cc4cccc(Cl)c4)CC3)C1CO2 (stereo not drawn)  hα2C receptor (Homo sapiens)                   IC50           nM             263
15  COc1cc2c(cc1OC(C)=O)OCC1C2=NOC1CN1CCN(C/C=C(\C)c2ccccc2)CC1 (single isomer, unassigned)  hα2C receptor (Homo sapiens)                   IC50           nM            3.24
16  CSc1cc2c(cc1F)C1=NOC(CN3CCN(CC(C)=Cc4ccccc4)CC3)C1CO2 (stereo not drawn)  hα2C receptor (Homo sapiens)                   IC50           nM            1.35
17  COc1cc2c(cc1OC)C1=NOC(CN3CCN(Cc4cccc(F)c4)CC3)C1CO2 (stereo not drawn)  hα2C receptor (Homo sapiens)                   IC50           nM             363
18  c1ccc2cc(CN3CCN(CC4ON=C5c6cc7c(cc6OCC54)OCO7)CC3)ccc2c1 (stereo not drawn)  hα2C receptor (Homo sapiens)                   IC50           nM              17
19  COc1cc2c(cc1OC(C)=O)OCC1C2=NOC1CN1CCN(C/C(C)=C/c2cccc(F)c2)CC1 (single isomer, unassigned)  hα2C receptor (Homo sapiens)                   IC50           nM            2.29
20  COc1cc2c(cc1OC)C1=NOC(CN3CCN(C/C=C/c4ccc(F)cc4F)CC3)C1CO2 (single isomer, unassigned)  hα2C receptor (Homo sapiens)                   IC50           nM            29.5
21  COc1cc2c(cc1OC)C1=NOC(CN3CCN(C/C=C/c4ccsc4)CC3)C1CO2 (single isomer, unassigned)  hα2C receptor (Homo sapiens)                   IC50           nM            6.46
22  COc1cc2c(cc1OC)C1=NOC(CN3CCN(Cc4ccc5ccccc5c4)CC3)C1CN2 (stereo not drawn) [Compound 15]  hα2C receptor (Homo sapiens)                   IC50           nM            11.5
23  COc1cc2c(cc1OC)C1=NOC(CN3CCN(CC4=Cc5ccccc5OC4)CC3)C1CO2 (stereo not drawn)  hα2C receptor (Homo sapiens)                   IC50           nM            5.13
24  COc1cc2c(cc1OC)C1=NOC(CN3CCN(Cc4ccc5c(N)cccc5c4)CC3)C1CO2 (stereo not drawn)  hα2C receptor (Homo sapiens)                   IC50           nM            64.6
25  COc1cc2c(cc1O)OCC1C2=NOC1CN1CCN(C/C(C)=C/c2ccccc2)CC1 (stereo not drawn)  hα2C receptor (Homo sapiens)                   IC50           nM            1.86
26  COc1cc2c(cc1OC)C1=NOC(CN3CCN(C/C(C)=C/c4ccccc4)CC3)C1CO2 (single isomer, unassigned)  hα2C receptor (Homo sapiens)                   IC50           nM            6.76
27  COc1ccc2c(c1)OCC1C2=NOC1CN1CCN(Cc2ccc3ccccc3c2)CC1 (stereo not drawn)  hα2C receptor (Homo sapiens)                   IC50           nM            27.5
28  COc1cc2c(cc1OCCOC(C)=O)C1=NOC(CN3CCN(CC(C)=Cc4ccccc4)CC3)C1CO2 (stereo not drawn)  hα2C receptor (Homo sapiens)                   IC50           nM           0.603
29  CC(=Cc1ccccc1)CN1CCN(CC2ON=C3c4ccc(O)cc4OCC32)CC1 (stereo not drawn)  hα2C receptor (Homo sapiens)                   IC50           nM            1.17
